# target-system: insulin receptor A (UniProt P06213-2 28-1370, limits assumed)
# Sequence (P06213 other isoform, or with tags, fused parts or gaps limits assumed): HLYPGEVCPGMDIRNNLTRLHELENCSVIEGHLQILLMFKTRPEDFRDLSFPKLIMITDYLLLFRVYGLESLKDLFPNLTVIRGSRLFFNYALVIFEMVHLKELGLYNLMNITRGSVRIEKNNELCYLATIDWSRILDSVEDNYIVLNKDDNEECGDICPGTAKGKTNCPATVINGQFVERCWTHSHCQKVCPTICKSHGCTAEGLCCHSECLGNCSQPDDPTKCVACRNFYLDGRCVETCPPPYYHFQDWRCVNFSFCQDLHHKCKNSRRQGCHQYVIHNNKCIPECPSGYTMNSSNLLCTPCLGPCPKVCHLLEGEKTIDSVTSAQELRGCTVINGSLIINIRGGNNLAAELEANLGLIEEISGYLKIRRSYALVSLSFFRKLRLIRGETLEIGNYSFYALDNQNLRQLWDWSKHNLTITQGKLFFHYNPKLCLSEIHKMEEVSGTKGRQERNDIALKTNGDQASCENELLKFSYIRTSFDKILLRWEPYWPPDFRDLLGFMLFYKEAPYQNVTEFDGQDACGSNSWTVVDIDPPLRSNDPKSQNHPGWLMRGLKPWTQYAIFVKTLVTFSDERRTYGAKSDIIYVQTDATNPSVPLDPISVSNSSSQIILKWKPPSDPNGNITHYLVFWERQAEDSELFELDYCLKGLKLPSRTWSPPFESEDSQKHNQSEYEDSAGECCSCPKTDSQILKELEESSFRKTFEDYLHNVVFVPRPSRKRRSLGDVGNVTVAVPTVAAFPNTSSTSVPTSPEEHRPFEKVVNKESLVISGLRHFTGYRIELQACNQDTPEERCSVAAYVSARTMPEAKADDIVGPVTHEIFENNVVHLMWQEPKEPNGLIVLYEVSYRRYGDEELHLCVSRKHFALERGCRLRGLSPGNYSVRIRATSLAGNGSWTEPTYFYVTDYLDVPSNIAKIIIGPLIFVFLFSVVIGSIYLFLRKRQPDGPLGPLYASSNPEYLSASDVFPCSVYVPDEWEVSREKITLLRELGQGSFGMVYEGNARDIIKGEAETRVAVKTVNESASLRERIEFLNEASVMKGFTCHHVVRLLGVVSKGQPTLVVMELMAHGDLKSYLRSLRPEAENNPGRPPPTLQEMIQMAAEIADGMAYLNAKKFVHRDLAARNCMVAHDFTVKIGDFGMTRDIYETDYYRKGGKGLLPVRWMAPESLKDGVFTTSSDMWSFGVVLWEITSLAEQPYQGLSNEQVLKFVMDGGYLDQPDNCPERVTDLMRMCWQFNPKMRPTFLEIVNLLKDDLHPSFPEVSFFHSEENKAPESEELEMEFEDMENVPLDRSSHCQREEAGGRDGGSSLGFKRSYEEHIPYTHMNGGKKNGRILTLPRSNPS
# assay-remarks: insulin receptor binding assay as in Vienberg et al. 2011; relative to human insulin on insulin receptor A (100%)
reported-property: Insulin receptor affinity [IC50 relative to HI (%)]
Write down the value, and be sure its unit follows.

-- ask Any idea what its Insulin receptor affinity [IC50 relative to HI (%)] is? The binder is A14E, A21G, A22(GQEP)6, A46K^, A47P, B25H, B29R, desB30 human insulin/(227A, 234A, 235K, 297E, 315Q, 384Q, des447 hIgG4-Fc(228-447)) … (other, Cys229 (EU numbering) sulphur bound to an acetyl arm of the linker; A46K N(eps) acylated by the trivalent linker 4-[bis[2-[(2-acetyl)amino]ethyl]amino]-4-oxo-butanoyl, also called Ex 5.32) chain 1: GIVEQCCTSICSLEQLENYCGGQEPGQEPGQEPGQEPGQEPGQEPKP chain 2: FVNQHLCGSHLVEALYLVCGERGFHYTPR chain 3: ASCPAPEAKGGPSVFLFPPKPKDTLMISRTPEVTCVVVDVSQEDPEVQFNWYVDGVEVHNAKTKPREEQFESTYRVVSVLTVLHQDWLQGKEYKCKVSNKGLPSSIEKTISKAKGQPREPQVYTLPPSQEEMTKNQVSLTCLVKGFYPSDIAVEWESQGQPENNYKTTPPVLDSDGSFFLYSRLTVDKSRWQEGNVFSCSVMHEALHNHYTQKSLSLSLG
-- reply 2.16%

-- ask // query: A14E, A21G, A22(GQAPGQEP)6, A70K^, A71P, B25H, B29R, desB30 human insulin/(227A, 234A, 235K, 297E, 315Q, 384Q, des447 hIgG4-Fc(228-447)) … (other, Cys229 (EU numbering) sulphur bound to an acetyl arm of the linker; A70K N(eps) acylated by the trivalent linker 4-[bis[2-[(2-acetyl)amino]ethyl]amino]-4-oxo-butanoyl, also called Ex 5.14) chain 1: GIVEQCCTSICSLEQLENYCGGQAPGQEPGQAPGQEPGQAPGQEPGQAPGQEPGQAPGQEPGQAPGQEPKP chain 2: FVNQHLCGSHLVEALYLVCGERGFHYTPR chain 3: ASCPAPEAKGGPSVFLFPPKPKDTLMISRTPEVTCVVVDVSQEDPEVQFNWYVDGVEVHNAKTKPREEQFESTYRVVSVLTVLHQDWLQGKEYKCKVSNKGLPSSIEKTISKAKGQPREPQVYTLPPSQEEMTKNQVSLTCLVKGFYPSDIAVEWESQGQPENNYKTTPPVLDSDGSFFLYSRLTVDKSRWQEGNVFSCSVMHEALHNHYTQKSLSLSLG
-- reply 5.37%

Data provenance: patent US20200261595A1
